test system: Hepatitis C virus; assay: Antiviral activity against HCV1b infected in human HuH7 cells expressing luciferase reporter gene assessed as reduction of luciferase activity after 3 days; format: functional, organism-based, Hepacivirus hominis; conditions: genotype 1b, Huh-7, 72 h
Measured quantity: EC50 (nM)

Consider the reported EC50 for these compounds:
- O=C(Nc1ccc(O)cc1)c1c(NO)cc(-c2ccccc2)oc1=O: 1000
- CCCNC(=O)c1c(NO)cc(-c2ccccc2)oc1=O: 450
- Cc1ccccc1NC(=O)c1c(NO)cc(-c2ccccc2)oc1=O: 540

P = COc1ccc(-c2cc(NO)c(C(=O)Nc3ccccc3)c(=O)o2)cc1
Q = COc1ccc(-c2cc(NO)c(C(=O)NCCO)c(=O)o2)cc1
R = O=C(NCCO)c1c(NO)cc(-c2ccc(Cl)cc2)oc1=O
rank_up(items): orders items by reported EC50 in ascending numerical order. Write the labels in rank order as requested.
P, Q, R

---

system: Hepatitis C virus; test: Antiviral activity against HCV1b infected in human HuH7 cells expressing luciferase reporter gene assessed as reduction of luciferase activity after 3 days; type: functional, organism-based, Hepacivirus hominis; settings: genotype 1b, Huh-7, 72 h
Measured quantity: EC50 (nM)

Consider the reported EC50 for these compounds:
- Cc1cccc(NC(=O)c2c(NO)cc(-c3ccccc3)oc2=O)c1: 270
- O=C(NCc1ccccc1)c1c(NO)cc(-c2ccc(F)cc2)oc1=O: 1180
- O=C(Nc1ccc(F)cc1)c1c(NO)cc(-c2ccccc2)oc1=O: 320
- O=C(Nc1ccccc1)c1c(NO)cc(-c2ccc(Cl)cc2)oc1=O: 560

I = O=C(Nc1ccc(Br)cc1)c1c(NO)cc(-c2ccccc2)oc1=O
II = CCNC(=O)c1c(NO)cc(-c2ccccc2)oc1=O
III = CC(C)NC(=O)c1c(NO)cc(-c2ccccc2)oc1=O
IV = COC(=O)CNC(=O)c1c(NO)cc(-c2ccc(Cl)cc2)oc1=O
rank_up(items): orders items by reported EC50 in ascending numerical order. Write the labels in rank order as requested.
I, III, II, IV
(I: 300 nM, III: 450 nM, II: 1000 nM, IV: 3060 nM)

P = Cc1ccc(-c2cc(NO)c(C(=O)NCc3ccccc3)c(=O)o2)cc1
Q = Cc1ccc(NC(=O)c2c(NO)cc(-c3ccc(C)cc3)oc2=O)cc1
So which one has the bigger EC50 here, P or Q ? Which one? Tell me its label.
P

P = Cc1ccc(-c2cc(NO)c(C(=O)NCCO)c(=O)o2)cc1
Q = Cc1ccc(NC(=O)c2c(NO)cc(-c3ccc(Cl)cc3)oc2=O)cc1
R = CNC(=O)c1c(NO)cc(-c2ccc(OC)cc2)oc1=O
S = COC(=O)CNC(=O)c1c(NO)cc(-c2ccc(C)cc2)oc1=O
T = COc1ccc(NC(=O)c2c(NO)cc(-c3ccccc3)oc2=O)cc1
Given 5 compounds, produce a descending ranking by EC50. Write the labels in rank order as requested.
S, P, Q, R, T
(S: 3990 nM, P: 2580 nM, Q: 1430 nM, R: 700 nM, T: 170 nM)

1 = O=C(NCCO)c1c(NO)cc(-c2ccccc2)oc1=O
2 = O=C(NCCCO)c1c(NO)cc(-c2ccccc2)oc1=O
3 = COC(=O)CNC(=O)c1c(NO)cc(-c2ccc(OC)cc2)oc1=O
Given 3 compounds, produce a descending ranking by EC50. Write the labels in rank order as requested.
3, 1, 2
